Reference source: paper PMC10014601

# TEST_DESCRIPTION: PAMPA-BBB passive membrane permeability
# RUN_CONDITIONS: pig, PAMPA, pH 7.4

[
  {
    "COMPOUND": "CN(C)CCCN1c2ccccc2Sc2ccc(Cl)cc21 [Chlorpromazine]",
    "OUTPUT_UNIT": "×10⁻⁶ cm/s",
    "Papp at 18 h": 6.8
  },
  {
    "COMPOUND": "CC(C)NCC(O)COc1ccc(CC(N)=O)cc1 (stereo not drawn) [Atenolol]",
    "OUTPUT_UNIT": "×10⁻⁶ cm/s",
    "Papp at 18 h": 0.74
  },
  {
    "COMPOUND": "CC(=O)[C@H]1CC[C@H]2[C@@H]3CCC4=CC(=O)CC[C@]4(C)[C@H]3CC[C@]12C [Progesterone]",
    "OUTPUT_UNIT": "×10⁻⁶ cm/s",
    "Papp at 18 h": 10.9
  },
  {
    "COMPOUND": "CCN(CC)CCCC(C)Nc1ccnc2cc(Cl)ccc12 (stereo not drawn) [Chloroquine]",
    "OUTPUT_UNIT": "×10⁻⁶ cm/s",
    "Papp at 18 h": 2.4
  },
  {
    "COMPOUND": "CCn1cc(C(=O)O)c(=O)c2cc(F)c(N3CCNC(C)C3)c(F)c21 (stereo not drawn) [Lomefloxacin]",
    "OUTPUT_UNIT": "×10⁻⁶ cm/s",
    "Papp at 18 h": 1.4
  },
  {
    "COMPOUND": "OCCN(CCO)c1nc(N2CCCCC2)c2nc(N(CCO)CCO)nc(N3CCCCC3)c2n1 [Dipyridamole]",
    "OUTPUT_UNIT": "×10⁻⁶ cm/s",
    "Papp at 18 h": 3.8
  },
  {
    "COMPOUND": "CCn1cc(C(=O)O)c(=O)c2cc(F)c(N3CCNCC3)nc21 [Enoxacin]",
    "OUTPUT_UNIT": "×10⁻⁶ cm/s",
    "Papp at 18 h": 0.98
  },
  {
    "COMPOUND": "CCn1cc(C(=O)O)c(=O)c2cc(F)c(N3CCNCC3)cc21 [Norfloxacin]",
    "OUTPUT_UNIT": "×10⁻⁶ cm/s",
    "Papp at 18 h": 0.15
  },
  {
    "COMPOUND": "COc1cc(Cc2cnc(N)nc2N)cc(OC)c1OC [Trimethoprim]",
    "OUTPUT_UNIT": "×10⁻⁶ cm/s",
    "Papp at 18 h": 2.5
  }
]
